Origin of measurements: the supplement of paper PMC10883282

- Test system: HS729
- Test Method Notes: standardised AUC of viability dose-response curve (72 h) (fraction (0-1)); higher = less growth inhibition (more resistant)
Measured Attribute: standardised AUC

{"columns": ["Compound", "Target Or Test System", "Measured Attribute", "Result Value"],
 "data": [
  ["Cn1ncnc1[C@H]1c2n[nH]c(=O)c3cc(F)cc(c23)N[C@@H]1c1ccc(F)cc1 [TALAZOPARIB]", "HS729", "standardised AUC", 0.936],
  ["Cc1cc2cc(Oc3ccnc(Nc4cccc(CS(=O)(=O)NCCN(C)C)c4)n3)ccc2[nH]1 [SULFATINIB]", "HS729", "standardised AUC", 0.874],
  ["N#CCNC(=O)c1ccc(-c2ccnc(Nc3ccc(N4CCOCC4)cc3)n2)cc1 [MOMELOTINIB]", "HS729", "standardised AUC", 0.922],
  ["CNC(=O)c1ccccc1Sc1ccc2c(/C=C/c3ccccn3)n[nH]c2c1 [AXITINIB]", "HS729", "standardised AUC", 0.826],
  ["CCC(=O)N1CC[C@H](Nc2ncnc3c2CN(c2cnc(OC)c(C(F)(F)F)c2)CC3)C1 [LENIOLISIB]", "HS729", "standardised AUC", 0.935],
  ["CN1CCN(c2ccc(C(=O)Nc3n[nH]c4ccc(Cc5cc(F)cc(F)c5)cc34)c(NC3CCOCC3)c2)CC1 [ENTRECTINIB]", "HS729", "standardised AUC", 0.915],
  ["CC(C)Oc1ccc(-c2nn([C@@H](C)c3oc4ccc(F)cc4c(=O)c3-c3cccc(F)c3)c3ncnc(N)c23)cc1F [UMBRALISIB]", "HS729", "standardised AUC", 0.939],
  ["Cc1ccc(Nc2nccc(N(C)c3ccc4c(C)n(C)nc4c3)n2)cc1S(N)(=O)=O [PAZOPANIB]", "HS729", "standardised AUC", 0.91]
]}

---

- Test system: SW684
- Test Method Notes: relative viability vs DMSO control (72 h) (fraction); higher = more viable cells
- Details: 0.3704 µM

{"columns": ["Compound", "relative viability"],
 "data": [
  ["CCN(CC)CCNC(=O)c1c(C)[nH]c(/C=C2\\C(=O)Nc3ccc(F)cc32)c1C [Sunitinib]", 1.07],
  ["N#CC1(c2ccc(NC(=O)c3cccnc3NCc3ccncc3)cc2)CCCC1 [Apatinib]", 1.05],
  ["CC(C)Oc1ccc(-c2nn([C@@H](C)c3oc4ccc(F)cc4c(=O)c3-c3cccc(F)c3)c3ncnc(N)c23)cc1F [Umbralisib]", 1.06],
  ["COCCNc1cc(NC(=O)N2CCCc3cc(CN4CCN(C)CC4=O)c(C=O)nc32)ncc1C#N [Roblitinib]", 1.08]
]}

---

- System: SK-ES-1
- Test Method Notes: relative viability vs DMSO control (72 h) (fraction); higher = more viable cells
- Details: 0.01372 µM
Measured Attribute: relative viability

{"columns": ["Compound", "Target Or Test System", "Result Value"],
 "data": [
  ["Cc1cc2cc(Oc3ccnc(Nc4cccc(CS(=O)(=O)NCCN(C)C)c4)n3)ccc2[nH]1", "SK-ES-1", 1.03],
  ["O=c1sn(-c2cccc3ccccc23)c(=O)n1Cc1ccccc1", "SK-ES-1", 1.08],
  ["COc1cc(CCc2cc(NC(=O)c3ccc(N4CC(C)NC(C)C4)cc3)n[nH]2)cc(OC)c1 (centres undefined)", "SK-ES-1", 1.05],
  ["CCC(=O)N1CC[C@H](Nc2ncnc3c2CN(c2cnc(OC)c(C(F)(F)F)c2)CC3)C1", "SK-ES-1", 1.04]
]}
